- EXPERIMENTAL PROTOCOL: Cmax in C57BL/6 mouse at 1 mg/kg, sc by LC-MS/MS analysis
- Assay type: ADME, organism-based
- CONDITION SUMMARY: in vivo
PROPERTY NAME: Cmax
Dear colleague, please send the value followed by its unit.

q: Cmax lookup needed for `COc1ccc(-c2nc3ccccc3s2)cc1OCCCCCCC(=O)NO` , thanks.
a: 572 ng/mL

----------
- EXPERIMENTAL PROTOCOL: Terminal elimination half life in C57BL/6 mouse at 1 mg/kg, sc by LC-MS/MS analysis
- Assay type: ADME, organism-based
- CONDITION SUMMARY: in vivo, read-out: LambdaZ (converted)
PROPERTY NAME: k el (s⁻¹)
Respond numerically; units are s⁻¹ and should not be typed.

q: k el lookup needed for `COc1ccc(-c2nc3ccccc3s2)cc1OCCCCCCC(=O)NO` , thanks.
a: 3.61e-05
